System: endo-α-GalNAcase
Assay: Effects of inhibitors (additives) on enzyme activity
Type: biochemical, Alcaligenes sp. F-1906
Details: additive concentration 2.0 mM; no additive = 100
measureName: Relative activity (%)

# compound, Relative activity [%]
data = [
    ("OC[C@H]1OC(O)[C@H](O)[C@@H](O)[C@H]1O (stereo partly shown) [Galactose]", 107),
    ("N[C@H]1C(O)O[C@H](CO)[C@H](O)[C@@H]1O (stereo partly shown) [Galactosamine]", 106),
    ("OC[C@H]1OC(O)[C@H](O)[C@@H](O)[C@@H]1O (stereo partly shown) [Glucose]", 109),
    ("N[C@H]1C(O)O[C@H](CO)[C@@H](O)[C@@H]1O (stereo partly shown) [Glucosamine]", 111),
]

---

Test system: endo-α-GalNAcase
Experiment: Effects of inhibitors (additives) on enzyme activity
Assay type: biochemical, Alcaligenes sp. F-1906
Settings: additive concentration 2.4 mM; no additive = 100
Experimental: The activity of this enzyme can be measured with asialofetuin as a substrate. The enzyme reaction is carried out in citrate buffer, pH 4.5, at 37° C., and then stopped by adding a borate buffer, pH 9.1, to this reaction mixture. The Gal β1→3GalNAc produced is measured by the method of Reissig. One unit of enzyme activity is defined as the amount of enzyme that releases 1 μmol of Gal β1,→3GalNAc in one minute. The enzyme was tested for the effects of various kinds of substances.
measureName: Relative activity (%)

# molecule, Relative activity [%]
data = [
    ("O=C(O)c1cc[c]([Hg][Cl])cc1", 99),
    ("CCN1C(=O)C=CC1=O [N-Ethylmaleimide]", 105),
    ("N[C@@H](CS)C(=O)O", 68),
    ("OCCS", 97),
]
